ASSAY_DETAILS: Pharmacokinetic profile in mice
Type: in vivo
REPORTED_CONDITIONS: mouse; fasted male Hilltop mice, 10 mg/kg oral gavage, plasma, mean of three mice
EXPERIMENTAL_READOUT: Cmax (ng/mL)

Examples from the recorded data:
COMPOUND: CCc1cnccc1-c1cccc(C2CN(C(=O)CCCC(=O)O)CCN2S(=O)(=O)c2cccc(Cl)c2C)c1 (stereo not drawn) [Compound 46AA]
EXPERIMENTAL_READOUT: Cmax
NUMERIC_READOUT: 1.6
//
COMPOUND: Cc1cnccc1-c1cccc(C(C)(C)N(CCCC(=O)NCCCS(=O)(=O)O)S(=O)(=O)c2cccc(Cl)c2C)c1 [Compound 20AD]
EXPERIMENTAL_READOUT: Cmax
NUMERIC_READOUT: 2.5
//
COMPOUND: CCc1cnccc1-c1cccc(C2CN(S(=O)(=O)CC(=O)O)CCN2S(=O)(=O)c2cccc(Cl)c2C)c1 (stereo not drawn)
EXPERIMENTAL_READOUT: Cmax
NUMERIC_READOUT: 228

(a) CCc1cnccc1-c1cccc(C(C)(C)NS(=O)(=O)c2ccccc2C(F)(F)F)c1
(b) Cc1cnccc1-c1cccc(C(C)(C)N(CCCC(=O)O)S(=O)(=O)c2ccccc2C(F)(F)F)c1
(c) Cc1cnccc1-c1cccc([C@H](C)N(CCCC(=O)NCCS(=O)(=O)O)S(=O)(=O)c2cccc(Cl)c2C)c1 [Compound 21AG]
Task: Let's sort these by Cmax, smallest first. Go ahead? Arrange the labels as the request states and list them.
Result: a, c, b
(a: 3.1 ng/mL, c: 14.3 ng/mL, b: 1080 ng/mL)

###

SYSTEM: mouse TGR5 receptor (Mus musculus, UniProt Q80SS6)
Construct: expressed in transfected cells; host or cells: HEK293-EBNA (293 c18, ATCC CRL10852), Hygromycin B selection
Sequence (Q80SS6 1-329): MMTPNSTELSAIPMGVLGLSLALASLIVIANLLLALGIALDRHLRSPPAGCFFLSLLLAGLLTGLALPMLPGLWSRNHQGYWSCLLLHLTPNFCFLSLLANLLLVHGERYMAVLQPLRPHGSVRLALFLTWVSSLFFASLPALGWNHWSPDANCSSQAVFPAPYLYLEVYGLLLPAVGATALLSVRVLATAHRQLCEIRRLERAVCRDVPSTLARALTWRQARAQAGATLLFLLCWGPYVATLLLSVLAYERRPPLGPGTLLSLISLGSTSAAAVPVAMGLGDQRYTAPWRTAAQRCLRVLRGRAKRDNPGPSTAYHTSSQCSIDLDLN
ASSAY_DETAILS: Mouse TGR5 cAMP production assay (HTRF, Cisbio cAMP HiRange)
Format: cell-based
REPORTED_CONDITIONS: HEK293-EBNA cells overexpressing mouse TGR5, HTRF cAMP HiRange; coded A-D
pEC50: −log10 of the molar value.
EXPERIMENTAL_READOUT: pEC50

Past entries and their recorded results:
COMPOUND: Cc1cnsc1-c1cccc([C@H](C)NS(=O)(=O)c2cccc(Cl)c2C)c1 [Compound 7AA]
RESULT: < 4.52
--
COMPOUND: Cc1cnccc1-c1cccc(C(C)(C)N(CCCC(=O)NCS(=O)(=O)O)S(=O)(=O)c2ccccc2C(F)(F)F)c1 [Compound 20AB]
RESULT: > 7.00
--
COMPOUND: Cc1c(Cl)cccc1S(=O)(=O)N(CCCC(=O)NCCS(=O)(=O)O)[C@@H](C)c1cccc(-c2ccncc2CO)c1 [Compound 20AP]
RESULT: 6.00 to 7.00
--
COMPOUND: CCc1cnccc1-c1cccc(C2CN(C(=O)CCC(=O)NCCS(=O)(=O)O)CCN2S(=O)(=O)c2cccc(Cl)c2C)c1 (centres unmarked) [Compound 53AB]
RESULT: > 7.00

Now turn to the next compound.
Summary: COc1cnccc1-c1cccc(C2CCCN2S(=O)(=O)c2cccc(C(F)(F)F)c2)c1 (centres unmarked) [Compound 40] , mouse TGR5 receptor (Mus musculus, UniProt Q80SS6), pEC50 = 4.52 to 6.00

###

ASSAY_DETAILS: Pharmacokinetic profile in mice
Type: in vivo
REPORTED_CONDITIONS: mouse; fasted male Hilltop mice, 10 mg/kg oral gavage, plasma, mean of three mice
EXPERIMENTAL_READOUT: Cmax (ng/mL)

(P) Cc1cnccc1-c1cccc(C(C)(C)N(CCCNC(=O)NCCS(N)(=O)=O)S(=O)(=O)c2cccc(Cl)c2C)c1 [Compound 29AB]
(Q) Cc1cnccc1-c1cccc(C(C)(C)N(CCCC(=O)NCC(N)=O)S(=O)(=O)c2cccc(Cl)c2C)c1 [Compound 21AC]
(R) Cc1cnccc1-c1cccc(C(C)(C)N(CCCC(=O)NCCS(=O)(=O)O)S(=O)(=O)c2cccc(Cl)c2C)c1 [Compound 20AG]
(S) Cc1cnccc1-c1cccc([C@H](C)N(CCCC(=O)NCCNS(=O)(=O)NCC(=O)O)S(=O)(=O)c2cccc(Cl)c2C)c1
Task: # rank above entries by Cmax (max first, min last) Labels, ranked as asked.
Result: Q, P, S, R
(Q: 269 ng/mL, P: 109 ng/mL, S: 3.6 ng/mL, R: 1.4 ng/mL)

###

SYSTEM: human TGR5 receptor (Homo sapiens, UniProt Q8TDU6)
Sequence (Q8TDU6 whole entry): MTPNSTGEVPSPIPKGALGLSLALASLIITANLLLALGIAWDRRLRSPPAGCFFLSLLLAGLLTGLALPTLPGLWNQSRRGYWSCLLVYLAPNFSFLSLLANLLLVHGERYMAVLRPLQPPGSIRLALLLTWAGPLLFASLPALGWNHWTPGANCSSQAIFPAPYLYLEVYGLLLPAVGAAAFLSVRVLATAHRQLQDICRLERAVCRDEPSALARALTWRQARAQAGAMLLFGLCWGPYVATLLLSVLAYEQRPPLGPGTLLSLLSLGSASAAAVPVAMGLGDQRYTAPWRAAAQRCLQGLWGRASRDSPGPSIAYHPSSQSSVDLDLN
ASSAY_DETAILS: Human TGR5 cAMP production assay
REPORTED_CONDITIONS: human TGR5, luminescent cAMP assay; coded A-D; read-out: Human TGR5 Lum. cAMP Activity (EC50)
EXPERIMENTAL_READOUT: EC50

COMPOUND: Cc1cnccc1-c1cccc(C2CN(C(=O)CS(=O)(=O)O)CCN2S(=O)(=O)c2ccccc2C(F)(F)F)c1 (stereo not drawn) [Compound 49AG]
RESULT: 0.1 to 0.999 µM
//
COMPOUND: COc1cnccc1-c1cccc(C(C)(C)NS(=O)(=O)c2cccc(Br)c2)c1 [Compound 2AT]
RESULT: 0.1 to 0.999 µM
//
COMPOUND: CC(C)(NS(=O)(=O)c1cccc(C(F)(F)F)c1)c1cccc(-c2ccncc2N)c1 [Compound 1AM]
RESULT: < 0.1 µM
//
COMPOUND: C[C@H](NS(=O)(=O)c1ccccc1[N+](=O)[O-])c1cccc(-c2ccncc2Cl)c1 [Compound 2BS]
RESULT: 0.1 to 0.999 µM
//
COMPOUND: Cc1nccc(-c2cccc([C@H](C)NS(=O)(=O)c3cccc(Cl)c3C)c2)c1C [Compound 7AB]
RESULT: 0.1 to 0.999 µM

For reference, reported EC50 for Cc1cnccc1-c1cccc([C@H](C)N(CCCCNC(=O)NCCS(=O)(=O)NCC(=O)O)S(=O)(=O)c2ccccc2C(F)(F)F)c1 [Compound 28AA] stands at < 0.1 µM

// EC50 lookup, compound = CC(C)(NS(=O)(=O)c1cccc(C(F)(F)F)c1)c1cccc(-c2ccncc2)c1 [Compound 1AD] , result: < 0.1 µM

###

SYSTEM: mouse TGR5 receptor (Mus musculus)
Construct: expressed in transfected cells; host or cells: HEK293-EBNA (293 c18, ATCC CRL10852), Hygromycin B selection
ASSAY_DETAILS: Mouse TGR5 cAMP production assay (HTRF, Cisbio cAMP HiRange)
Assay type: cell-based
REPORTED_CONDITIONS: HEK293-EBNA cells overexpressing mouse TGR5, HTRF cAMP HiRange; coded A-D
EXPERIMENTAL_READOUT: EC50

Form field, EC50 with mouse TGR5 receptor (Mus musculus), item Cc1cnccc1-c1cccc(C(C)(C)N(CCCNC(=O)NCS(=O)(=O)O)S(=O)(=O)c2cccc(Cl)c2C)c1 : 100 to 999 nM

The reported EC50 value, mouse TGR5 receptor (Mus musculus), for CCc1cnccc1-c1cccc(C2CN(C(=O)CN(C)CC(=O)O)CCN2S(=O)(=O)c2cccc(Cl)c2C)c1 (stereo not drawn) [Compound 46AC] reads < 100 nM

Cc1cnccc1-c1cccc(C(C)(C)N(CCCC(=O)O)S(=O)(=O)c2ccccc2C(F)(F)F)c1 tested on mouse TGR5 receptor (Mus musculus) gave EC50: < 100 nM

###

SYSTEM: human TGR5 receptor (Homo sapiens)
ASSAY_DETAILS: Human TGR5 cAMP production assay
REPORTED_CONDITIONS: human TGR5, luminescent cAMP assay; coded A-D; read-out: Human TGR5 Lum. cAMP Activity (EC50)
EXPERIMENTAL_READOUT: EC50

The following molecules have reported results that may help.
MOLECULE: Cc1cnccc1-c1cccc([C@H](C)N(CCCC(=O)NCCNS(=O)(=O)NOC(C)(C)C)S(=O)(=O)c2cccc(Cl)c2C)c1 [Compound 37A]
EXPERIMENTAL_READOUT: EC50
RESULT: < 0.1 µM
--
MOLECULE: CC(=O)N1CCN(S(=O)(=O)c2ccccc2C(F)(F)F)C(c2cccc(-c3ccncc3C)c2)C1 (stereo not shown) [Compound 45]
EXPERIMENTAL_READOUT: EC50
RESULT: 0.1 to 0.999 µM
--
MOLECULE: Cc1cnccc1-c1cccc(C2CN(C(=O)CS(=O)(=O)O)CCN2S(=O)(=O)c2cccc(Cl)c2Cl)c1 (stereo not shown) [Compound 49AC]
EXPERIMENTAL_READOUT: EC50
RESULT: < 0.1 µM

Now consider a different molecule.
Measured EC50 (human TGR5 receptor (Homo sapiens)), entry Cc1cncc(F)c1-c1cccc(C(C)(C)NS(=O)(=O)c2cccc(C(F)(F)F)c2)c1 [Compound 1AO] : 1 to 30 µM
